Taken from ChEMBL document CHEMBL4834430.

EXPERIMENTAL PROTOCOL: Half life in human liver microsomes at 1 uM in presence of NADPH by LC-MS/MS analysis
Assay type: ADME, Microsome
half-life at 1 µM reference
Show the value, then the unit it is measured in.

These recorded examples may help you get a feel for the data.
                           substance_smiles    outcome_measure  value_reported
0  Fc1cc(-c2cccc(C(F)(F)F)c2)ccc1CO[C@H]1C[C@@H](N=C=S)C1  half-life at 1 µM          16 min
1  CN(Cc1ccc(-c2ccccc2)cc1)[C@H]1C[C@@H](N=C=S)C1  half-life at 1 µM        14.7 min
2  Fc1cc(-c2ccc3c(c2)OCO3)ccc1CO[C@H]1C[C@@H](N=C=S)C1  half-life at 1 µM         3.3 min
3  COc1cnc(-c2ccc(CO[C@H]3C[C@@H](N=C=S)C3)cn2)cc1F  half-life at 1 µM        11.8 min
4  COc1ccc(-c2ccc(C(=O)N[C@H]3C[C@@H](N=C=S)C3)nc2)cc1F  half-life at 1 µM          13 min

Request: Report measured half-life at 1 µM; entry is "COc1ncccc1-c1ccc(CO[C@H]2C[C@@H](N=C=S)C2)c(F)c1"
Response: 15.3 min

Request: Give the value of half-life at 1 µM reported for the following: "S=C=N[C@H]1C[C@@H](OCc2ccc(-c3ccccc3)cc2)C1"
Response: 16.1 min

---

EXPERIMENTAL PROTOCOL: Ratio of drug concentration in brain to plasma in CD-1 mouse at 8 mg/kg, po
Type: ADME, organism-based
EXPERIMENTAL SETUP: read-out: BPR
OUTCOME MEASURE: Kp
When you answer, write just the number.

Request: For the compound "COc1ccc(-c2ccc(CO[C@H]3C[C@@H](N=C=S)C3)nc2)cc1F" , give its measured Kp value.
Response: 0.25

---

EXPERIMENTAL PROTOCOL: Clearance in CD-1 mouse plasma at 8 mg/kg, po measured up to 8 hrs
Assay type: ADME, organism-based
OUTCOME MEASURE: CL/F (mL/min/kg)
Answer format: numeric, mL/min/kg implied, no suffix.

Request: Please give measured CL/F of the following entry: "COc1ccc(-c2ccc(CO[C@H]3C[C@@H](N=C=S)C3)nc2)cc1F"
Response: 2760

---

EXPERIMENTAL PROTOCOL: Ratio of drug concentration in brain to plasma in CD-1 mouse at 2 mg/kg, iv
Format: ADME, organism-based
EXPERIMENTAL SETUP: read-out: BPR
OUTCOME MEASURE: Kp
Answer with the value's number alone.

Request: Please supply the value of reported Kp for the item "COc1ccc(-c2ccc(CO[C@H]3C[C@@H](N=C=S)C3)nc2)cc1F"
Response: 3.8

---

TARGET UNDER TEST: N-acylethanolamine-hydrolyzing acid amidase (Homo sapiens, UniProt Q02083)
EXPERIMENTAL PROTOCOL: Inhibition of human NAAA using N-(4-methyl coumarin)-palmitamide as fluorogenic substrate preincubated for 90 mins followed by substrate addition by fluorescence assay
OUTCOME MEASURE: IC50 (nM)
Answer format: numeric, nM implied, no suffix.

Request: Supply IC50 value. Item: "COc1ccc(-c2ccc3c(c2)CCN([C@H]2C[C@@H](N=C=S)C2)C3)cc1F"
Response: 89

---

half-life at 1 µM values for the compounds below.
EXPERIMENTAL PROTOCOL: Half life in mouse liver microsomes at 1 uM in presence of NADPH by LC-MS/MS analysis
Type: ADME, Microsome
The reply should contain only the number, in min.

>>> print(df.to_string())
                           substance_smiles  readout_units  value_reported
0  COc1ccc(-c2ccc(S(=O)(=O)N[C@H]3C[C@@H](N=C=S)C3)cc2)cc1F            min               6
1  Fc1cc(-c2ccc3c(c2)OCO3)ccc1CO[C@H]1C[C@@H](N=C=S)C1            min             2.4
2  COc1ccc(-c2ccc(OC(=O)N[C@H]3C[C@@H](N=C=S)C3)cc2)cc1            min             6.2
3  COc1ccc(-c2ccc(C(=O)N[C@H]3C[C@@H](N=C=S)C3)nc2)cc1F            min              14

Request: Check the records and state half-life at 1 µM for "S=C=N[C@H]1C[C@@H](OCc2ccc(-c3ccccc3)cc2)C1"
Response: 14.4

Request: Item "COc1ccc(-c2ccc(CO[C@H]3C[C@@H](N=C=S)C3)nc2)cc1F" : provide half-life at 1 µM
Response: 28.2

---

TARGET UNDER TEST: N-acylethanolamine-hydrolyzing acid amidase (Homo sapiens)
Sequence (Q02083 whole entry): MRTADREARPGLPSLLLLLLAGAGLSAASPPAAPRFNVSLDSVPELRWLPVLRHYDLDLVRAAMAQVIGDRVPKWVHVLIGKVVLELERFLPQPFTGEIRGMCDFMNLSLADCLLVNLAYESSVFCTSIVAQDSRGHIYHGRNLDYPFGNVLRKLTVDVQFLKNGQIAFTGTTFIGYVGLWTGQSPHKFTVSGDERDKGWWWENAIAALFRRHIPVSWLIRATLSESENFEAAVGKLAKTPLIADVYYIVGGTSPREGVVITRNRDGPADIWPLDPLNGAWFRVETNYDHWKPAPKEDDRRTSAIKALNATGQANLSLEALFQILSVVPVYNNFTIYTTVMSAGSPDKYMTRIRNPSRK
EXPERIMENTAL PROTOCOL: Inhibition of human NAAA using N-(4-methyl coumarin)-palmitamide as fluorogenic substrate preincubated for 90 mins followed by substrate addition by fluorescence assay
pIC50 overview
Keep it numeric: pIC50 is minus log10 of the concentration in mol/L.

In [3]: df
Out[3]:
                                   molecule  value_reported
0  Fc1cc(-c2cccc(OCc3ccccc3)c2)ccc1CO[C@H]1C[C@@H](N=C=S)C1            7.00
1  CCOc1ccc(-c2ccc(CO[C@H]3C[C@@H](N=C=S)C3)c(F)c2)cc1F            7.16
2  Fc1cc(-c2ccc3c(c2)CCO3)ccc1CO[C@H]1C[C@@H](N=C=S)C1            8.35

Request: Using the record for "COc1ccc(-c2cc(C(=O)N[C@H]3C[C@@H](N=C=S)C3)on2)cc1" , state its measured pIC50.
Response: 7.04

Request: Given the molecule "Cc1ccc(-c2ccc(CO[C@H]3C[C@H](N=C=S)C3)cc2)cc1" , write its reported pIC50.
Response: 6.24

Request: Give reported pIC50 value for "Cc1ccc(-c2ccc(CO[C@H]3C[C@@H](N=C=S)C3)cc2)cc1"
Response: 7.59

Request: Provide one value: measured pIC50 of "S=C=NC1CN(CCCCCCc2ccccc2)C1"
Response: 8.08

Request: Specify measured pIC50 for "COc1cnc(-c2ccc(CO[C@H]3C[C@@H](N=C=S)C3)cn2)cc1F" .
Response: 7.82

Request: Answer with the recorded pIC50 for the molecule listed here: "COc1ccc(-c2cc(CO[C@H]3C[C@@H](N=C=S)C3)on2)cc1"
Response: 7.36

---

TARGET UNDER TEST: N-acylethanolamine-hydrolyzing acid amidase (Homo sapiens)
Sequence (Q02083 whole entry): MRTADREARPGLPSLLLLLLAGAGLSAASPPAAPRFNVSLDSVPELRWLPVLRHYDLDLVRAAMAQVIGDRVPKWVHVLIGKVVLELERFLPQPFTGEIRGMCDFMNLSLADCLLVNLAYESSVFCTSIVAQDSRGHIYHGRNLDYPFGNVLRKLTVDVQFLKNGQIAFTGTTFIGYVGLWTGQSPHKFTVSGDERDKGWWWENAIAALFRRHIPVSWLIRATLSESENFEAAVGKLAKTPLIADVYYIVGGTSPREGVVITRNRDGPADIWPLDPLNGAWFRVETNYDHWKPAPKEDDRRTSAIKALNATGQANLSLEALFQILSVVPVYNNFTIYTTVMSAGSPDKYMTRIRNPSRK
EXPERIMENTAL PROTOCOL: Inhibition of human NAAA using N-(4-methyl coumarin)-palmitamide as fluorogenic substrate preincubated for 90 mins followed by substrate addition by fluorescence assay
Each item that follows carries a reported log10 IC50.
Values reflect log10 of reported IC50 (nM).

Here's what some known entries look like.
                                   compound  value_reported
0  COc1ccc(-c2ccc(S(=O)(=O)N[C@H]3C[C@@H](N=C=S)C3)cc2)cc1F            0.51
1  COc1ccc(-c2ccc(CO[C@H]3CC[C@@H](N=C=S)C3)nc2)cc1F (single isomer, unassigned)            3.16
2  COc1ccc(C2CC(C(=O)N[C@H]3C[C@@H](N=C=S)C3)C2)cc1 (stereo partly specified)            1.75
3  FC1(F)Oc2ccc(-c3ccc(CO[C@H]4C[C@@H](N=C=S)C4)nc3)cc2O1            2.23
4  COc1ccc(-c2ccc(CO[C@H]3C[C@@H](N=C=S)C3)nc2)nc1            1.48

Request: Write down the reported log10 IC50 (system: N-acylethanolamine-hydrolyzing acid amidase (Homo sapiens)) of "Fc1cc(-c2ccc3c(c2)OCO3)ccc1CO[C@H]1C[C@@H](N=C=S)C1"
Response: 0.94
